test: Cytotoxicity against C57BL/6 mouse peritoneal macrophages assessed as cell viability at 60 uM after 24 hrs by MTT assay; format: cell-based, Peritoneal macrophage; conditions: read-out: Activity
observation-type: viability at 24 h, 60 µM (%)
# output: bare number, implied unit %

Dear colleague, I am looking for the recorded viability at 24 h, 60 µM of the following compound: "Cc1cc(=O)c2c(O)c([C@@H]3O[C@H](CO)[C@@H](O)[C@H](O)[C@H]3O)c(O)cc2o1"
90.4

====

test system: RAW264.7; experiment: Antiinflammatory activity in mouse RAW264.7 cells assessed as inhibition of LPS-induced PGE2 production preincubated for 1 hr followed by LPS challenge for 24 hrs by ELISA method; type: functional, cell-based
observation-type: IC50 (µM)
# output: bare number, implied unit µM

Dear colleague, I am looking for the recorded IC50 of the following compound: "Cc1cc(=O)c2c(O)c([C@@H]3O[C@H](CO)[C@@H](O)[C@H](O)[C@H]3O)c(O)cc2o1"
37.1

Dear colleague, I am looking for the recorded IC50 of the following compound: "Cc1cc(=O)c2c(O)cc(O)c([C@@H]3O[C@H](CO)[C@@H](O)[C@H](O)[C@H]3O)c2o1"
46
